Each recorded value in this set is attributed to PubChem BioAssay.

experiment: doxorubicin toxicity protection in MRP-1 cells – H69AR cells, CellTiter-Glo, duplicate, MRP-1 activator project, pilot screen (AID 807); details: H69AR viability with doxorubicin, CellTiter-Glo luminescence; at 10 µM; hits give high values;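 note: compound pretreatment 18-22 h then 72 h combined with doxorubicin; 0% = doxorubicin alone and 100% = vehicle without doxorubicin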
Reported viability increase values for the following molecules.

| MOLECULE | viability increase, % |
| --- | --- |
| COc1ccc(C(NC(=O)c2ccco2)c2ccc(OC)c(OC)c2)cc1 (configuration not stated) | -4.05 |
| COc1cc2[nH]c(=O)n(CCCCCC(=O)NCCCN3CCCC3=O)c(=O)c2cc1OC | 1.13 |
| COc1ccc2oc(C(=O)CCC(=O)O)c(N)c2c1 | -0.43 |
| C#CCOC(=O)C1C2C=CC(C2)C1C(=O)O (configuration not stated) | 0.51 |
| Clc1ccc(-c2noc(COc3ccccc3)n2)cc1 | 2.15 |
| Cc1ccccc1-c1c(C)oc2cc(O)ccc2c1=O | -4.28 |
| Cc1cc(C)c(NC(=O)Cn2cc3c(n2)CCCC3)c(C)c1 | -0.84 |
| CC1CCCCC1NC(=O)Cn1ncc2ccccc21 (configuration not stated) | -1.21 |
| COc1ccccc1OCC(=O)N(Cc1nc(-c2ccc(Cl)cc2)no1)C(C)C | 2.37 |
| CCOCCn1c(SCc2ccc(F)cc2)nc2c1c(=O)[nH]c(=O)n2C | -2.04 |
| CCN(CC)C1=CC(=O)OC12CCCCC2 | -2.99 |
| CC1CCN(C(=O)CSc2nnc(-c3ccco3)o2)CC1 | 0.32 |
| CCCOC(=O)CC1C(=O)NCCN1Cc1ccc(F)cc1 (configuration not stated) | -1.04 |
| CC1=C(C(=O)N2CCOCC2)C(c2cccs2)NC(=O)N1 (configuration not stated) | -0.8 |
| CC(=O)c1cc2c(cc1NC(=O)CN1CCN(C(=O)c3ccco3)CC1)OCO2 | -3.21 |
| O=S(=O)(c1ccc(F)cc1)N1CCC(N2CCCC2)CC1 | -2.89 |
| Cc1cc(NC(=O)CSc2nc3c(c(=O)n2CCc2ccccc2)SC(C)C3)no1 (configuration not stated) | -1.68 |
| CCN1CCN(C(c2cccs2)C(C)NC(=O)c2cccc(OC)c2)CC1 (configuration not stated) | -2.25 |
| O=C(CN1CCOc2ccccc21)N1CCN(c2cccc(Cl)c2)CC1 | -4.17 |
| CCOC(=O)CSC1=C(C#N)C(c2ccc(C)o2)CC(=O)N1 (configuration not stated) | -5.31 |
| CCOC(=O)N1CCN(C(=O)C2CCN(C(=O)c3cc4sccc4n3CC)CC2)CC1 | -3.05 |
| O=C1O/C(=C\C(=O)N2CCOCC2)c2ccccc21 | -1.56 |
| CNS(=O)(=O)c1ccc(Oc2ccc(S(=O)(=O)NC)cc2)cc1 | -0.17 |
| CCCCSc1nc2c(cnn2-c2ccc(F)cc2)c(=O)[nH]1 | -2.12 |
| Cc1cccc(-n2ncc3c(NCCc4ccc(S(N)(=O)=O)cc4)ncnc32)c1 | -2.67 |
| CCOc1ccc(C2CC(c3cccc(OC)c3)Nc3nc(N)nn32)cc1 (configuration not stated) | -0.23 |
| Cc1ccc(NC(=O)C(C)N2CCOCC2)c(C(=O)c2ccccc2)c1 (configuration not stated) | -1.7 |
| Cc1[nH]nc2c1C(=O)CC(C)(C)C2 | -4.31 |
| Cc1nc(CC(=O)c2c(C)cc(O)cc2O)cs1 | 2.92 |
| COc1ccccc1NC1=C(C)C(=O)CC1 | -4.17 |
| Cc1cc(=O)oc2cc(OCC(O)CN3CCN(c4ccc(F)cc4)CC3)ccc12 (configuration not stated) | -0.12 |
| O=C1NC2(Nc3ccccc31)C(=O)Nc1ccccc12 (configuration not stated) | -3.77 |
| Nc1c(C(=O)Nc2ccc(Cl)cc2)oc2ccccc12 | -4.54 |
| Cc1nnc2n(-c3ccc(Cl)cc3)c(=O)c3c4c(sc3n12)CN(C)CC4 | -1.73 |
| CCOC(=O)N1CCN(c2cc(=O)n(-c3cccc(Br)c3)c(=O)[nH]2)CC1 | -2.79 |
| OC(CNCCc1ccccc1)c1ccccc1 (configuration not stated) | -0.36 |
| CCOc1ccc(Cn2nnc(C(=O)Nc3cc(C)cc(C)c3)c2N)cc1 | -3.02 |
| Cc1nn(-c2ccc(F)cc2)c2c1cc(C#N)c1nc3ccccc3n12 | -1.92 |
| CC(C)N(C(=O)CSc1nc2c([nH]1)c(=O)n(C)c(=O)n2C)c1ccccc1 | 1.94 |
| CCCCOC(=O)Nc1ccccc1C(N)=O | 0.35 |
| CN(C)C(=O)N1CCN(C(=O)c2ccco2)CC1 | -1.78 |
| CC1CCN(Cc2ccc(NC(=O)C3CCN(c4nnc(-n5cccc5)s4)CC3)cc2)CC1 | -2.95 |
| CCOc1ccc(S(=O)(=O)n2c(C)nc3ccccc32)cc1 | 1.02 |
| COc1ccccc1-n1c(=O)[nH]c2c(C(N)=O)nc(C3CCCCC3)nc21 | -3.33 |
| Cc1nc2ccc(Br)cn2c1NC(C)(C)C | -2.98 |
| O=C(Cc1cccs1)N(Cc1ccco1)C1(C(=O)NC2CCCC2)CCCCC1 | -5.17 |
| CC(C)(C)NC(=O)Cn1c(=O)oc2ccc(Cl)cc21 | -4.63 |
